Values from ChEMBL document CHEMBL3046347

test system: THP-1; test: Anti-inflammatory activity in Homo sapiens (human) THP1 cells assessed as inhibition of LPS-induced TNFalpha production at 10 uM incubated for 30 min prior to LPS-challenge measured after 24 hr by ELISA; format: functional
valueKind: inhibition at 10 µM (%)
Number in %, nothing else.

// worked examples, inhibition at 10 µM included
COc1cc(OC)c(/C=C/C(=O)c2cccc(NC(=O)c3cccc(F)c3)c2)c(OC)c1Br ... 78
COc1cc(OC)c(/C=C/C(=O)c2cccc(NC(=O)c3ccccc3C(F)(F)F)c2)c(OC)c1Br ... 85
COc1ccc(C(=O)Nc2cccc(C(=O)/C=C/c3c(OC)cc(OC)c(Br)c3OC)c2)cc1 ... 63

Problem: Bench note: what inhibition at 10 µM did `COc1cc(OC)c(/C=C/C(=O)c2cccc(NC(=O)c3cccc(Cl)c3)c2)c(OC)c1Br` show?
Solution: 0

Problem: What do we get for `COc1cc(OC)c(/C=C/C(=O)c2cccc(NC(=O)c3ccc(C(C)(C)C)cc3)c2)c(OC)c1Br` ?
Solution: 83

###

system: THP-1; experiment: Anti-inflammatory activity in Homo sapiens (human) THP1 cells assessed as inhibition of LPS-induced TNFalpha production at 10 uM incubated for 30 min prior to LPS-challenge measured after 24 hr by ELISA; type: functional
Kind request: treat 80% as inclusive, so inhibition at 10 µM at 80% or higher is Fulfilled, anything lower is Not fulfilled.

Here's what some known entries look like.
COc1cc(OC)c(/C=C/C(=O)c2cccc(NC(=O)c3cccc(Br)c3)c2)c(OC)c1Br ... Not fulfilled
COc1cc(OC)c(/C=C/C(=O)c2cccc(NC(=O)c3ccccc3F)c2)c(OC)c1Br ... Fulfilled
COc1cc(OC)c(/C=C/C(=O)c2cccc(NC(=O)c3ccccc3C)c2)c(OC)c1Br ... Not fulfilled

Proceed to the following item.
Problem: Please indicate if the recorded inhibition at 10 µM for `COc1cc(OC)c(/C=C/C(=O)c2cccc(NC(=O)c3ccc(F)cc3)c2)c(OC)c1Br` meets or exceeds 80%.
Solution: Fulfilled

###

biological target: Prostaglandin G/H synthase 1 (Ovis aries); settings: at 1 µM;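 also: colorimetric read-out, measured after 5 min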
Description: Inhibition of Ovis aries (sheep) COX1 at 1 uM after 5 min by colorimetric analysis
valueKind: inhibition
Output should be the measured figure followed by the unit it is expressed in.

// worked examples, inhibition included
COc1cc(OC)c(/C=C/C(=O)c2cccc(NC(=O)c3ccc(F)cc3)c2)c(OC)c1Br ... 58.9%
COc1cc(OC)c(/C=C/C(=O)c2cccc(NC(=O)c3ccccc3)c2)c(OC)c1Br ... 51.9%
COc1ccc(C(=O)Nc2cccc(C(=O)/C=C/c3c(OC)cc(OC)c(Br)c3OC)c2)cc1 ... 19.6%
COc1cc(OC)c(/C=C/C(=O)c2cccc(NC(=O)c3ccccc3F)c2)c(OC)c1Br ... 44.8%
COc1cc(OC)c(/C=C/C(=O)c2cccc(NC(=O)c3cccs3)c2)c(OC)c1Br ... 27.8%
COc1cc(OC)c(/C=C/C(=O)c2cccc(NC(=O)c3cccc(C(F)(F)F)c3)c2)c(OC)c1Br ... 48.9%

Now turn to the next compound.
Problem: Bench note: what inhibition did `COc1cc(OC)c(/C=C/C(=O)c2cccc(NC(=O)c3ccc(C(C)(C)C)cc3)c2)c(OC)c1Br` show?
Solution: 64.6%
